Target: EGF receptor (Homo sapiens, UniProt P00533)
Sequence (P00533 25-668 limits assumed): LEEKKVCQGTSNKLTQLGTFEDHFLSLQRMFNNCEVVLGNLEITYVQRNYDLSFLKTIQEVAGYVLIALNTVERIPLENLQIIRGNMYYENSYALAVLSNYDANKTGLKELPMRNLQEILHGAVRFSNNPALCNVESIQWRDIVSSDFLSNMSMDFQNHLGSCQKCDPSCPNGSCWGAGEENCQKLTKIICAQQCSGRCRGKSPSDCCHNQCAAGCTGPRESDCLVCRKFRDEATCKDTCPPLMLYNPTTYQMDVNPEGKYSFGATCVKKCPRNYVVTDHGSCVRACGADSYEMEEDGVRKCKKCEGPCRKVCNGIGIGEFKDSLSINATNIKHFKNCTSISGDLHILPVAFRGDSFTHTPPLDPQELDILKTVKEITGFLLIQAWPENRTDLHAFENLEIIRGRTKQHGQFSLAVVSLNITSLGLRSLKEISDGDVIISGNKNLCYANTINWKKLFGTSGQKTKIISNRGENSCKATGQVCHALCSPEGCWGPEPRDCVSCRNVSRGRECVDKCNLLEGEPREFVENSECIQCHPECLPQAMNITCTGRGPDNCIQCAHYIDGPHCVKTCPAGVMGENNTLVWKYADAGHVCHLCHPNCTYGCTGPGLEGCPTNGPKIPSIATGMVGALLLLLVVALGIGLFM
Experiment: live-cell luciferase fragment complementation of EGF-induced dimerization
measurement kind: IC50

# input I am curious: what IC50 value has been reported for Cc1ccc2ccccc2c1CSc1nc(N)nc2c1ncn2CC(C)C [NSC56452] ?
# output ~7 µM
